# Measurement description: Selectivity index, ratio of CC50 for african green monkey Vero cells to EC50 for Pichinde virus An 4763
# Type: toxicity, cell-based
# Run conditions: read-out: Ratio CC50/EC50
Readout label: selectivity ratio
Field format: numeric only.

Challenge: Which selectivity ratio reading was recorded for the compound NC(=O)c1nc(F)c[nH]c1=O ?
Response given: 186

====

# Measurement description: Selectivity index, ratio of CC50 for african green monkey Vero 76 cells to EC50 for Sandfly fever Naples virus
# Assay type: toxicity, cell-based
# Run conditions: read-out: Ratio CC50/EC50
Readout label: selectivity ratio

Challenge: Which selectivity ratio reading was recorded for the compound NC(=O)c1nc(F)c[nH]c1=O ?
Response given: > 55

====

# Measurement description: Cytotoxicity against african green monkey Vero 76 cells assessed as cell viability after 3 to 5 days
# Type: cell-based
# Run conditions: chlorocebus sabaeus
Readout label: CC50

Challenge: Which CC50 reading was recorded for the compound NC(=O)c1nc(F)c[nH]c1=O ?
Response given: > 6.26 mM

====

# Measurement description: Selectivity index, ratio of CC50 for african green monkey Vero 76 cells to EC50 for Rift Valley fever virus MP-12
# Assay type: toxicity, cell-based
# Run conditions: read-out: Ratio CC50/EC50
Readout label: selectivity ratio

Challenge: Which selectivity ratio reading was recorded for the molecule NC(=O)c1nc(F)c[nH]c1=O ?
Response given: > 196

====

# Measurement description: Metabolic stability in po dosed mouse assessed as drug remaining after 6 hrs
# Assay type: ADME, organism-based
# Run conditions: in vivo, read-out: Stability
Readout label: remaining at 6 h (%)
The reply should be a number in %, with the unit left off.

Challenge: Which remaining at 6 h reading was recorded for the compound NC(=O)c1nc(F)c[nH]c1=O [FAVIPIRAVIR] ?
Response given: 10

====

# Tested on: Junin virus
# Measurement description: Antiviral activity against Junin virus Candid-1 in Vero cells assessed as inhibition of virus-induced visual cytopathic effect after 7 to 8 days
# Format: functional, organism-based
# Run conditions: Mammarenavirus juninense, Candid-1, Vero
Readout label: EC50
Please answer in the form of a number followed by its unit of measurement.

[
  {
    "Compound": "NC(=O)c1nc(F)cnc1O [FAVIPIRAVIR]",
    "Tgt": "Junin virus",
    "EC50": "5 µM"
  }
]

Now turn to the next compound.
Challenge: Provide the documented EC50 with Junin virus as the system for NC(=O)c1ncn([C@@H]2O[C@H](CO)[C@@H](O)[C@H]2O)n1 [RIBAVIRIN]
Response given: 11 µM

====

# Measurement description: Selectivity index, ratio of CC50 for african green monkey Vero cells to EC50 for Junin virus Candid-1
# Format: toxicity, cell-based
# Run conditions: read-out: Ratio CC50/EC50
Readout label: selectivity ratio

Challenge: Which selectivity ratio reading was recorded for the compound NC(=O)c1nc(F)c[nH]c1=O ?
Response given: 239

====

# Measurement description: Cytotoxicity against african green monkey Vero cells after 7 to 8 days by neutral-red dye uptake assay
# Assay type: cell-based
# Run conditions: chlorocebus sabaeus
Here the recorded CC50 is given for each entry.
The reply should be a number in µM, with the unit left off.

[
  {
    "Smiles repr": "NC(=O)c1ncn([C@@H]2O[C@H](CO)[C@@H](O)[C@H]2O)n1",
    "CC50 [µM]": 156
  }
]

Now turn to the next compound.
Challenge: Which CC50 reading was recorded for the compound NC(=O)c1nc(F)c[nH]c1=O ?
Response given: 1110

====

Here the recorded EC50 is given for each entry.
# Tested on: La Crosse virus
# Measurement description: Antiviral activity against La Crosse virus assessed as inhibition of virus-induced visual cytopathic effect after 3 to 5 days
# Assay type: functional, organism-based
The reply should be a number in µM, with the unit left off.

[
  {
    "Smiles repr": "NC(=O)c1nc(F)cnc1O",
    "Assay result": 32
  }
]

Challenge: Which EC50 reading was recorded for the compound NC(=O)c1ncn([C@@H]2O[C@H](CO)[C@@H](O)[C@H]2O)n1 ?
Response given: 70

====

# Measurement description: Selectivity index, ratio of CC50 for african green monkey Vero 76 cells to EC50 for Punta Toro virus Adames
# Type: toxicity, cell-based
# Run conditions: read-out: Ratio CC50/EC50
Readout label: selectivity ratio

Challenge: Which selectivity ratio reading was recorded for the molecule NC(=O)c1nc(F)c[nH]c1=O [FAVIPIRAVIR] ?
Response given: > 33
